target: T1, extracellular domain of hCD4 fused with a histidine tag (hCD4-HisTag) (human, UniProt P01730 26-396); experiment: Biacore T200 SPR, antibody captured on Protein A, CD4-HisTag analyte, 1:1 fit, 25 C
T1 construct: extracellular domain; also called human CD4-HisTag; not shown: histidine tag
Exercise: for every item that follows, state its recorded kon.
Remember to put the unit after the number in your answer.

Quick note, kon for Chimeric 10C2 anti-CD4 antibody (antibody, human IgG1, kappa, V domains shown) VH: EVKLQQSGTELMKPGASVKISCKATGYTFSSYWIEWIKQRPGRGLEWIGEILPGSGSTNYNEEFTGRATFTADTFSNTAYMQLSSLTSEDSAVYYCARSVSASNWYFDVWGAGTTVTVSS VL: DIVMTQSPASLAVSLGQRATISCRASQSVSTSSYSYMHWYQQKPGQPPKFLIKYASNLESGVPARFSGSGSGTDFTLNIHPVEEEDTATYYCQHSWEIPPTFGGGTKLEIKR landed at 160000 M⁻¹ s⁻¹

Note to self: kon recorded for Chimeric 33E12 anti-CD4 antibody (antibody, human IgG1, kappa, V domains shown) VH: DVQLQESGPGLVKPSQSLSLTCTVTGYSITSDYAWNWIRQFPGNKLEWMGYISYSGITSYNPSLKSRFSITRDTSKNQFFLQLNSVTTEDTATYYCARLDSSGYGAMDYWGQGTSVTVSS VL: DIVLTQSPASLPVSLGQRATISCRASQSVSTSSYSYMHWYQQKPGQPPKLLIRYASNLESGVPARFSGSGSGTDFTLNIHPVEEEDTATYYCQHSWDFPLTFGAGTKLELKR was 1.09e+06 M⁻¹ s⁻¹

Per the records, this binder ( Chimeric 29B7 anti-CD4 antibody (antibody, human IgG1, kappa, V domains shown) VH: QVQLQQSGAELAKPGASVKMSCKTSADSLNTHWMHWVKQRPGQGLEWIGYINPYTGSGEYSQKFKGKATLTADISSSTAYMQLISLTSEDSAVYYCAYDSTGAMDYWGQGTSVTVSS VL: DIKMTQSPSSMYASLGERITITCKASQDINRYLSWFQQKPGKSPKTPIYRADRSVDGVPSRFSGSGSGQDYSLTISSLEYEDMGIYYCQQYDEFPYTFGGGTKLEIKR ) has kon equal to 709000 M⁻¹ s⁻¹

The measured kon associated with MT412 humanized anti-CD4 antibody (antibody, V domains shown, Expressed as heavy and light chains in Freestyle 293 cells; The description says only that humanized antibodies may have human IgG1 and human kappa constant regions; also called Humanized MT412) VH: QIQLVQSGSELKKPGASVKVSCKASGYTFTDYSMHWVRQAPGQGLEWMGWINTETGEPTYADDFKGRFVFSLDTSVSTAYLQISSLKAEDTAVYYCAREDYYGHDGFLYWGQGTLVTVSS VL: DIQMTQSPSFLSASVGDRVTITCKASQDVVTTVAWYQQKPGKAPKLLIYWASLRHTGVPSRFSGSGSGTEFTLTISSLQPEDFATYFCQQYSSYPYTFGQGTKLEIKR reads 1.11e+06 M⁻¹ s⁻¹

Hello, the source for this data is patent US11254745, in case you need it.
